System: Sweetpotato Whitefly-Crawler (Bemisia Tabaci)
Test: Insecticidal test for sweetpotato whitefly-crawler in foliar spray assay (col. BEMITA)
Type: in vivo
Details: Bemisia tabaci, sweetpotato whitefly-crawler, read-out: BEMITA 200 ppm (Corrected % Control, rating)
reported-metric: pest or weed control at 200 ppm

For Sweetpotato Whitefly-Crawler (Bemisia Tabaci), provide pest or weed control at 200 ppm of Cc1nc(-c2cccnc2)sc1NC(=O)CCCCl [Compound 209] please.
< 80%

For Sweetpotato Whitefly-Crawler (Bemisia Tabaci), provide pest or weed control at 200 ppm of Cc1nc(-c2cncc(F)c2)sc1N(C)C(=O)CC(C)[S+](C)[O-] (centres unmarked) [Compound 285] please.
80 to 100%

For Sweetpotato Whitefly-Crawler (Bemisia Tabaci), provide pest or weed control at 200 ppm of Cc1nc(-c2cccnc2)sc1N(C)C(=O)CCS(C)(=O)=O [Compound 95] please.
80 to 100%

For Sweetpotato Whitefly-Crawler (Bemisia Tabaci), provide pest or weed control at 200 ppm of CC(=O)N1CCCC(C(=O)N(C)c2sc(-c3cccnc3)nc2C)C1 (centres unmarked) [Compound 412] please.
80 to 100%

For Sweetpotato Whitefly-Crawler (Bemisia Tabaci), provide pest or weed control at 200 ppm of CN(C(=O)OC(C)(C)C)c1sc(-c2cccnc2)nc1Br [Compound 242] please.
80 to 100%

For Sweetpotato Whitefly-Crawler (Bemisia Tabaci), provide pest or weed control at 200 ppm of CN(C(=O)OC(C)(C)C)c1sc(-c2cccnc2)nc1C(F)(F)F [Compound 10] please.
80 to 100%

For Sweetpotato Whitefly-Crawler (Bemisia Tabaci), provide pest or weed control at 200 ppm of CSCC(C)(C)C(=O)N(C)c1cnc(-c2cccnc2)s1 [Compound 29] please.
80 to 100%

For Sweetpotato Whitefly-Crawler (Bemisia Tabaci), provide pest or weed control at 200 ppm of Cc1nc(-c2cccnc2)sc1NC(=O)OC(C)C(F)(F)F (centres unmarked) [Compound 378] please.
80 to 100%

For Sweetpotato Whitefly-Crawler (Bemisia Tabaci), provide pest or weed control at 200 ppm of Cc1nc(-c2cccnc2)sc1NC(=O)C(C)CS(C)(=O)=O (centres unmarked) [Compound 99] please.
80 to 100%

For Sweetpotato Whitefly-Crawler (Bemisia Tabaci), provide pest or weed control at 200 ppm of CC(=O)N(C)c1cnc(-c2cccnc2)s1 [Compound 22] please.
< 80%

For Sweetpotato Whitefly-Crawler (Bemisia Tabaci), provide pest or weed control at 200 ppm of C=CCN(C(=O)C(C)CSC)c1sc(-c2cccnc2)nc1C (centres unmarked) [Compound 426] please.
80 to 100%

For Sweetpotato Whitefly-Crawler (Bemisia Tabaci), provide pest or weed control at 200 ppm of C=CC(=O)N(C(=O)C(C)CSC)c1sc(-c2cccnc2)nc1C (centres unmarked) [Compound 204] please.
< 80%

For Sweetpotato Whitefly-Crawler (Bemisia Tabaci), provide pest or weed control at 200 ppm of COCC(C)(C)OC(=O)Nc1sc(-c2cccnc2)nc1C [Compound 199] please.
80 to 100%

For Sweetpotato Whitefly-Crawler (Bemisia Tabaci), provide pest or weed control at 200 ppm of CN(C(=O)OCc1ccc([N+](=O)[O-])o1)c1cnc(-c2cncc(F)c2)s1 [Compound 77] please.
< 80%

For Sweetpotato Whitefly-Crawler (Bemisia Tabaci), provide pest or weed control at 200 ppm of COC(=O)CCC(=O)N(C)c1sc(-c2cccnc2)nc1C [Compound 252] please.
80 to 100%

For Sweetpotato Whitefly-Crawler (Bemisia Tabaci), provide pest or weed control at 200 ppm of Cc1nc(C)n(CC(C)C(=O)Nc2sc(-c3cccnc3)nc2C)n1 (centres unmarked) [Compound 332] please.
< 80%

For Sweetpotato Whitefly-Crawler (Bemisia Tabaci), provide pest or weed control at 200 ppm of CSC(C)C(=O)N(C(=O)OC(C)(C)C)c1sc(-c2cccnc2)nc1C (centres unmarked) [Compound 357] please.
80 to 100%
